# System: SK-MEL-5 melanoma
# Protocol description: NCI-60 one-dose screen, 48 h (100 = growth as untreated, 0 = no growth, -100 = all killed)
# Applied conditions: 10 µM unless noted
About 83,000 compounds went through this panel and 20% of them were active in at least one assay; those are over-represented in the sample as a whole.
Assign 1 to entries whose growth meets or exceeds 80%; assign -1 to the rest.

The examples below pair each entry with its known result.
{"Molecule": "Clc1ccccc1CNc1c2ccccc2nc2ccccc12", "Category": -1}
{"Molecule": "O=C(c1ccccc1)C1OC1C(=O)c1ccccc1 (stereo unspecified)", "Category": -1}
{"Molecule": "O/N=C1\\c2ccccc2-c2ccc(Br)cc21", "Category": 1}
{"Molecule": "O=[N+]([O-])c1ccc(SSc2ccc([N+](=O)[O-])cc2Cl)c(Cl)c1", "Category": 1}

Let's switch to this molecule now.
(Q) Would you say "O=[N+]([O-])c1ccc(N=Nc2c(NNc3ccc([N+](=O)[O-])cn3)cc(S(=O)(=O)O)c3ccccc23)nc1" shows growth at minimum 80%?
(A) 1

---

# Test system: RPMI-8226 leukemia
# Protocol description: NCI-60 one-dose screen, 48 h
# Applied conditions: 10 µM unless noted
About 83,000 compounds went through this panel and 20% of them were active in at least one assay; those are over-represented in the sample as a whole. The source made the active and inactive calls. Rule for the calls: active = growth percent below 10; inactive = the rest.
Classes to choose from: YES (active), NO (inactive)

{"Compound": "CC(C)[C@@]12C[C@@H](OC(=O)C3CO3)[C@@](C)(O1)[C@@H]1CC[C@@H](C)[C@H]1[C@@H]2OC(=O)/C=C/c1ccccc1 (some centres not stated)", "Category": "NO"}

(Q) What did this assay record as the result for "Oc1ccc(-c2nc3ccccc3s2)cc1CN(Cc1ccccn1)Cc1ccccn1" ?
(A) NO

(Q) What did this assay record as the result for "O=[N+]([O-])c1ccc(SSc2ccc([N+](=O)[O-])cc2Cl)c(Cl)c1" ?
(A) NO

(Q) What did this assay record as the result for "O=C(C(=O)N1CCCC1)c1cn(CCCn2cc(C(=O)C(=O)N3CCCC3)c3cc(Br)ccc32)c2ccc(Br)cc12" ?
(A) NO

(Q) What did this assay record as the result for "O=C1NN(C(=O)c2ccccc2)C(c2ccc(Cl)c(Cl)c2)=C/C1=C\c1ccccc1[N+](=O)[O-]" ?
(A) YES

(Q) What did this assay record as the result for "C[C@H](NC(=O)c1snnc1C1CC1)c1c(F)cccc1Cl" ?
(A) NO

(Q) What did this assay record as the result for "CCCCOC(=O)c1cc(O)c(O)c(O)c1" ?
(A) NO

(Q) What did this assay record as the result for "CN(C)CC(=O)c1ccc2cc(Br)c3ccccc3c2c1" ?
(A) NO

(Q) What did this assay record as the result for "CC(=O)Nc1c(Br)cc2c(c1Br)Cc1cc(Br)ccc1-2" ?
(A) NO

(Q) What did this assay record as the result for "CN1C2CCC1/C(=C\c1ccc(F)cc1)C(=O)/C2=C/c1ccc(F)cc1" ?
(A) NO

(Q) What did this assay record as the result for "N=C(N)c1ccc(-c2ccc(-c3ccco3)o2)cc1F" ?
(A) YES

(Q) What did this assay record as the result for "CCN(CC)c1ccc(/C=N/NC(=O)C[N+](C)(C)C)cc1" ?
(A) NO

(Q) What did this assay record as the result for "O=C(NNC(=O)c1cccc(Cl)c1)c1ccccc1" ?
(A) NO

(Q) What did this assay record as the result for "N#Cc1ccc(-c2ccc(-c3cccs3)o2)cc1F" ?
(A) NO

(Q) What did this assay record as the result for "Cc1cccc(N=NC(=S)NNc2cccc(C)c2)c1" ?
(A) NO

(Q) What did this assay record as the result for "CS(=O)(=O)c1ccc(C(=O)N/N=C/c2ccccc2O)cc1" ?
(A) NO

---

# System: T-47D breast
# Protocol description: NCI-60 one-dose screen, 48 h
# Applied conditions: 10 µM unless noted
This is part of a sample that, as a whole, favours compounds with a hit. Of some 83,000 tested, about 20% had one in any assay. Activity calls are given as the source filed them. How the source made its calls: active means growth percent below 10; inactive means the rest.
Classes to choose from: yes (1) = active, no (0) = inactive

The examples below pair each entry with its known result.
{"Molecule": "CCCCCCCOc1cccc(/C=C2\\N=C3SCCCN3C2=O)c1", "Category": "yes (1)"}
{"Molecule": "CCCCCCCCCCCCCC", "Category": "no (0)"}
{"Molecule": "COc1cc(/C=C2\\CN(C(=O)OC(C)(C)C)C/C(=C\\c3ccc(O)c(OC)c3)C2=O)ccc1O", "Category": "no (0)"}
{"Molecule": "COc1cc(Cl)cc(-c2nn(C(=O)NCCN3CCOCC3)cc2-c2ccncc2)c1", "Category": "no (0)"}
{"Molecule": "COc1cc(C2CC(c3ccccc3)=NN2C=O)ccc1Oc1nc2c(c(=O)n(C)c(=O)n2C)n1C (centres undefined)", "Category": "no (0)"}
{"Molecule": "CC(C)=CC[C@@H]1CC2(CC=C(C)C)C(=O)C(OC3(C(=O)c4ccccc4)C(=O)C4(CC=C(C)C)C[C@@H](CC=C(C)C)C(C)(C)C(CC=C(C)C)(C4=O)C3=O)(C(=O)c3ccccc3)C(=O)C(CC=C(C)C)(C2=O)C1(C)C (some centres undefined)", "Category": "yes (1)"}
{"Molecule": "COc1cc(C2CC(c3ccc(C)cc3)=NN2C=O)ccc1Oc1nc2c(c(=O)n(C)c(=O)n2C)n1C (centres undefined)", "Category": "no (0)"}
{"Molecule": "CC(C)(C)[Si](C)(C)OC1[C@@H](O[Si](C)(C)C(C)(C)C)[C@@H](CNC(=O)NC(=O)NC(=O)CI)O[C@H]1n1cnc2c(NC(=O)Nc3ccccc3)ncnc21 (some centres undefined)", "Category": "no (0)"}

Let's switch to this molecule now.
(Q) What did this assay record as the result for "CCCCCCCCCCCCCC1=NC(C)(C)CN1C(C)C" ?
(A) yes (1)

---

Entries and their growth
# Tested on: NCI-H322M lung
# Protocol description: NCI-60 one-dose screen, 48 h (100 = growth as untreated, 0 = no growth, -100 = all killed)
# Applied conditions: 10 µM unless noted
This is part of a sample that, as a whole, favours compounds with a hit. Of some 83,000 tested, about 20% had one in any assay.
Respond numerically; units are % and should not be typed.

{"Compound": "COc1ccc(C2=NNC(c3ccc(Oc4nc5c(c(=O)n(C)c(=O)n5C)n4C)c(OC)c3)C2)cc1 (centres undefined)", "Output unit": "%", "Recorded measurement": 102}
{"Compound": "Clc1ccc(Cl)c(N=Cc2ccc3c(c2)OCO3)c1", "Output unit": "%", "Recorded measurement": 108}
{"Compound": "CCOc1cc(/C=N\\NC(=O)C[N+](C)(C)C)ccc1O", "Output unit": "%", "Recorded measurement": 123}
{"Compound": "O=C1N(Cc2ccccc2Cl)c2ccccc2C12NN=C(c1ccccc1)S2 (centres undefined)", "Output unit": "%", "Recorded measurement": 56.5}

// next entry
(Q) Param readout= growth; system= NCI-H322M lung; entry= "COc1ccc(NC(=O)c2sc3c(=O)[nH]c(C(F)(F)F)nc3c2C)cc1" ; returns value.
(A) 107

---

# Test system: UACC-62 melanoma
# Protocol description: NCI-60 one-dose screen, 48 h
# Applied conditions: 10 µM unless noted
About 83,000 compounds went through this panel and 20% of them were active in at least one assay; those are over-represented in the sample as a whole. Calls of active or inactive are those of the source. Rule for the calls: active = growth percent below 10; inactive = the rest.
Classes to choose from: active, inactive

The examples below pair each entry with its known result.
{"Molecule": "COc1ccc(C(=O)O)cc1.[Ag]", "Target": "UACC-62 melanoma", "Category": "inactive"}
{"Molecule": "COc1ccc(NC(=O)c2sc3c(=O)[nH]c(C(F)(F)F)nc3c2C)cc1", "Target": "UACC-62 melanoma", "Category": "inactive"}

(Q) What did this assay record as the result for "Clc1cccc(CNc2c3ccccc3nc3ccccc23)c1" ?
(A) inactive

(Q) What did this assay record as the result for "COc1ccc(Cl)cc1Nc1nc(C(F)(F)F)ccc1C(=O)NN" ?
(A) active

(Q) What did this assay record as the result for CCOC(=O)C1=C(C)NC(=S)NC1c1ccccc1 (stereo not given) ?
(A) inactive

(Q) What did this assay record as the result for CCOC(=O)C1=C(C(=O)OCC)N(c2cc(OC)c(OC)c(OC)c2)C(N)=C(C#N)C1c1cc(=O)[nH]c2ccccc12 (stereo not given) ?
(A) inactive

---

# System: OVCAR-3 ovarian
# Protocol description: NCI-60 one-dose screen, 48 h
# Applied conditions: 10 µM unless noted
This is part of a sample that, as a whole, favours compounds with a hit. Of some 83,000 tested, about 20% had one in any assay. Calls of active or inactive are those of the source. Rule for the calls: active = growth percent below 10; inactive = the rest.
Classes to choose from: true (active), false (inactive)

{"Compound": "O=C1OC(/C=C/c2ccccc2)=NC/1=C/c1ccccc1[N+](=O)[O-]", "Category": "false"}
{"Compound": "CCOC(=O)C#Cc1c(C(=O)OCC)nnn1[C@@H]1O[C@H](COC(C)=O)[C@@H](OC(C)=O)[C@H]1OC(C)=O", "Category": "false"}
{"Compound": "Cc1cc(N)cc(C)c1-c1c(Br)cc(N)cc1Br", "Category": "true"}
{"Compound": "CCN1C(=O)N(CC)C2C1NN=c1s/c(=C\\c3ccc(Br)cc3)c(=O)n12 (stereo unspecified)", "Category": "true"}
{"Compound": "CC(C)c1ccc(-c2cnc3nonc3n2)cc1", "Category": "false"}

(Q) What did this assay record as the result for "O=S1(=O)NCCCN1CCNc1nccc(-c2c(-c3cccc(O)c3)nc3sccn23)n1" ?
(A) false

(Q) What did this assay record as the result for CCN1C(=O)N(CC)C2C1NC(=O)N2/N=C/C=C/c1ccccc1 (stereo unspecified) ?
(A) true

(Q) What did this assay record as the result for "CS(=O)(=O)c1ccc(C(=O)N/N=C/c2ccccc2Cl)cc1" ?
(A) false

(Q) What did this assay record as the result for "Cc1ccc(C)c2c1SC1=NNC(Oc3ccc(Cl)cc3)=C(C#N)C(=N)N12" ?
(A) false
